# reported EC50; entries follow
# system_tested: human adenosine A2B receptor (Homo sapiens (Human))
# Sequence (P29275 whole entry): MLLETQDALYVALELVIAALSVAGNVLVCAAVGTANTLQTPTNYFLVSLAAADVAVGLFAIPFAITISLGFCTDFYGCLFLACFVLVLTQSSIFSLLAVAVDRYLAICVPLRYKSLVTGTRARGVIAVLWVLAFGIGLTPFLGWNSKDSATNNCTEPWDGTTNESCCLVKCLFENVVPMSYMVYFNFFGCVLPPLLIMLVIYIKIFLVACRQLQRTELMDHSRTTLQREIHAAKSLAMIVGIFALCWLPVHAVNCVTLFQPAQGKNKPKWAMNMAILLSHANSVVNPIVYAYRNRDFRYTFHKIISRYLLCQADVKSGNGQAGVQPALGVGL
# experiment_description: Adenosine A2B Receptor Cyclic AMP GS Assay
# Type: cell-based
# measurement_setup: A2B_cAMP_EC50 (nM), HEK-293 cells expressing human A2B, agonist NECA 12 nM
recorded_metric: EC50

>>> df
                                    compound  recorded_metric  value_reported
 0  N#Cc1cccc(-c2nc(N)c3cc(C(O)c4ccccc4F)nn3c2Br)c1 (centres unmarked) [Example 22]             EC50  100 to 1000 nM
 1  CN1CCC2(CN(Cc3cccc(F)c3Cc3nc4c(N)nc(-c5cccc(C#N)c5F)cn4n3)C2)C1=O [Example 85]             EC50    10 to 100 nM
 2  CN1CCN(c2cc(-c3cc4c(N)nc(-c5cccc(C#N)c5)c(-c5ccncc5)n4n3)ccn2)CC1 [Example 26]             EC50    10 to 100 nM
 3  N#Cc1cccc(-c2nc(N)c3nc(Cn4ncc5ccccc54)nn3c2-c2ccncn2)c1 [Example 48]             EC50    10 to 100 nM
 4  N#Cc1cccc(-c2nc(N)c3nc(C(O)c4ccccc4Cl)nn3c2-c2ccncn2)c1 (single isomer, unassigned) [Example 57]             EC50         < 10 nM
 5  N#Cc1cccc(-c2nc(N)c3cc(C(O)c4ccccc4F)nn3c2-c2ccncn2)c1 (racemic) [Example 23]             EC50         < 10 nM
 6  CN(C)C(=O)Cn1cc(-c2cccc(F)c2Cc2nc3c(N)nc(-c4cccc(C#N)c4F)cn3n2)cn1 [Example 114]             EC50    10 to 100 nM
 7  N#Cc1cccc(-c2nc(N)c3nc(Cc4c(F)cccc4CN4CC(C#N)C4)nn3c2-c2ccncn2)c1 [Example 73]             EC50         < 10 nM
 8  Cn1nncc1-c1c(-c2cccc(C#N)c2)nc(N)c2cc(Cc3ccccn3)nn12 [Example 37]             EC50         < 10 nM
 9  N#Cc1cccc(-c2nc(N)c3nc(Cc4c(F)cccc4CN[C@H]4CCNC4=O)nn3c2-c2ccncn2)c1 [Example 68]             EC50    10 to 100 nM
10  N#Cc1cccc(-c2nc(N)c3cc(C(=O)N4CCCCC4)nn3c2-c2ccncn2)c1 [Example 9]             EC50    10 to 100 nM
